TARGET DESC: Mot3 (UniProt P54785)
Sequence: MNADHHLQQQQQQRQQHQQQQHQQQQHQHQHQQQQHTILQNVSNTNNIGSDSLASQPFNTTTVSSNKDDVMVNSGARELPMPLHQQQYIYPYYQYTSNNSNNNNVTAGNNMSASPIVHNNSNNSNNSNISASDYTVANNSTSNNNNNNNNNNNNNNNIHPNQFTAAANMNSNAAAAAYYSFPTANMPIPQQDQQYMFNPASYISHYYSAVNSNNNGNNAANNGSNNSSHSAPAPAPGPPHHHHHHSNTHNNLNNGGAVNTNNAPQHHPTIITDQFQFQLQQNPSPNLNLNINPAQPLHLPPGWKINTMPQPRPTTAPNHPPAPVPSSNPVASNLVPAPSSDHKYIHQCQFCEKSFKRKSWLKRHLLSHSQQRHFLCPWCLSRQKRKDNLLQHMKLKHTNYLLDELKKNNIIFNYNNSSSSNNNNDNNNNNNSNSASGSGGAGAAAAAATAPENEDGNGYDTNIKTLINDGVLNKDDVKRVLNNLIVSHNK
ASSAY EXPLANATION: PBM E-score (8-mer binding enrichment) (E-score (-0.5 to 0.5)); higher = stronger / more preferred TF binding
CONDITION NOTES: protein concentration: 200 nM; construct: GST-full length
Whole data set: some 33,000 sequences, median “E-score (-0.5 to 0.5)” near -0.035, cut for the highest 2% near 0.34. The list comes from a sample in which the highest values are over-represented; it also holds close analogues and randomly drawn sequences.
Threshold check on PBM E-score: at or above 0.001 gives yes, strictly below gives no.

Enquiry: Does the reported PBM E-score for `ACGCACTG` fall at or above the 0.001 mark?
Return: yes

Enquiry: Does the reported PBM E-score for `AGGCACTG` fall at or above the 0.001 mark?
Return: yes

Enquiry: Does the reported PBM E-score for `ATGCCTGG` fall at or above the 0.001 mark?
Return: yes

Enquiry: Does the reported PBM E-score for `GGGCACAA` fall at or above the 0.001 mark?
Return: yes

Enquiry: Does the reported PBM E-score for `GTGCCTCA` fall at or above the 0.001 mark?
Return: yes

Enquiry: Does the reported PBM E-score for `CGGCACTA` fall at or above the 0.001 mark?
Return: no

Enquiry: Does the reported PBM E-score for `ATGTAAGG` fall at or above the 0.001 mark?
Return: yes

Enquiry: Does the reported PBM E-score for `ATCCAGCG` fall at or above the 0.001 mark?
Return: no

Enquiry: Does the reported PBM E-score for `ATGTAACG` fall at or above the 0.001 mark?
Return: yes

Enquiry: Does the reported PBM E-score for `ACAGGCCA` fall at or above the 0.001 mark?
Return: yes

Enquiry: Does the reported PBM E-score for `AAGCCTTA` fall at or above the 0.001 mark?
Return: no

Enquiry: Does the reported PBM E-score for `GTCTGCAA` fall at or above the 0.001 mark?
Return: no

Enquiry: Does the reported PBM E-score for `CCATCCGC` fall at or above the 0.001 mark?
Return: no

Enquiry: Does the reported PBM E-score for `AAGCACAT` fall at or above the 0.001 mark?
Return: yes

Enquiry: Does the reported PBM E-score for `TCGGTCCA` fall at or above the 0.001 mark?
Return: no

Enquiry: Does the reported PBM E-score for `ACAGTAGT` fall at or above the 0.001 mark?
Return: no

Enquiry: Does the reported PBM E-score for `GGGCACAC` fall at or above the 0.001 mark?
Return: yes

Enquiry: Does the reported PBM E-score for `AATGTTAA` fall at or above the 0.001 mark?
Return: yes

Enquiry: Does the reported PBM E-score for `ACAGGCAT` fall at or above the 0.001 mark?
Return: yes

Enquiry: Does the reported PBM E-score for `GGAGGAAC` fall at or above the 0.001 mark?
Return: yes

Enquiry: Does the reported PBM E-score for `CGGTAATC` fall at or above the 0.001 mark?
Return: no

Enquiry: Does the reported PBM E-score for `CGGCACAG` fall at or above the 0.001 mark?
Return: no

Enquiry: Does the reported PBM E-score for `ACACGATA` fall at or above the 0.001 mark?
Return: yes

Enquiry: Does the reported PBM E-score for `ACAGGCAG` fall at or above the 0.001 mark?
Return: yes

Enquiry: Does the reported PBM E-score for `CCACGATA` fall at or above the 0.001 mark?
Return: no

Enquiry: Does the reported PBM E-score for `CTGCCTCA` fall at or above the 0.001 mark?
Return: no

Enquiry: Does the reported PBM E-score for `CTACGCGA` fall at or above the 0.001 mark?
Return: yes

Enquiry: Does the reported PBM E-score for `AACGACCG` fall at or above the 0.001 mark?
Return: no

Enquiry: Does the reported PBM E-score for `GGGGGCAC` fall at or above the 0.001 mark?
Return: no

Enquiry: Does the reported PBM E-score for `AGAGGCAG` fall at or above the 0.001 mark?
Return: no

Enquiry: Does the reported PBM E-score for `GCGGTTCC` fall at or above the 0.001 mark?
Return: yes

Enquiry: Does the reported PBM E-score for `ATGTAATA` fall at or above the 0.001 mark?
Return: yes

Enquiry: Does the reported PBM E-score for `ATGTAATG` fall at or above the 0.001 mark?
Return: yes

Enquiry: Does the reported PBM E-score for `CATTCTCA` fall at or above the 0.001 mark?
Return: yes

Enquiry: Does the reported PBM E-score for `AAGCACTG` fall at or above the 0.001 mark?
Return: no

Enquiry: Does the reported PBM E-score for `ACCTACCA` fall at or above the 0.001 mark?
Return: yes

Enquiry: Does the reported PBM E-score for `CGGCACTC` fall at or above the 0.001 mark?
Return: no

Enquiry: Does the reported PBM E-score for `ATAGGAAT` fall at or above the 0.001 mark?
Return: no

Enquiry: Does the reported PBM E-score for `GTCAGGGA` fall at or above the 0.001 mark?
Return: no

Enquiry: Does the reported PBM E-score for `AGTTCTCG` fall at or above the 0.001 mark?
Return: no

Enquiry: Does the reported PBM E-score for `ATGCCTCA` fall at or above the 0.001 mark?
Return: yes

Enquiry: Does the reported PBM E-score for `CCGCAAAC` fall at or above the 0.001 mark?
Return: no

Enquiry: Does the reported PBM E-score for `CTTCCCTA` fall at or above the 0.001 mark?
Return: no

Enquiry: Does the reported PBM E-score for `TATGTTAA` fall at or above the 0.001 mark?
Return: yes

Enquiry: Does the reported PBM E-score for `ATGCCTTA` fall at or above the 0.001 mark?
Return: yes

Enquiry: Does the reported PBM E-score for `AGGCACAG` fall at or above the 0.001 mark?
Return: yes

Enquiry: Does the reported PBM E-score for `CTAGGTCA` fall at or above the 0.001 mark?
Return: no

Enquiry: Does the reported PBM E-score for `GTTCTGGA` fall at or above the 0.001 mark?
Return: yes

Enquiry: Does the reported PBM E-score for `AAAAGATG` fall at or above the 0.001 mark?
Return: yes

Enquiry: Does the reported PBM E-score for `ACAGGCAA` fall at or above the 0.001 mark?
Return: yes

Enquiry: Does the reported PBM E-score for `GATTTCGC` fall at or above the 0.001 mark?
Return: yes

Enquiry: Does the reported PBM E-score for `ACAGGAGG` fall at or above the 0.001 mark?
Return: no

Enquiry: Does the reported PBM E-score for `AGGCACAC` fall at or above the 0.001 mark?
Return: yes

Enquiry: Does the reported PBM E-score for `GGAGCGCA` fall at or above the 0.001 mark?
Return: no

Enquiry: Does the reported PBM E-score for `GCGTCCCC` fall at or above the 0.001 mark?
Return: no

Enquiry: Does the reported PBM E-score for `TACTGAGA` fall at or above the 0.001 mark?
Return: no

Enquiry: Does the reported PBM E-score for `GCGCAAGC` fall at or above the 0.001 mark?
Return: no

Enquiry: Does the reported PBM E-score for `ATCGCTTC` fall at or above the 0.001 mark?
Return: no

Enquiry: Does the reported PBM E-score for `CAAGTCGG` fall at or above the 0.001 mark?
Return: no

Enquiry: Does the reported PBM E-score for `ATGCACAT` fall at or above the 0.001 mark?
Return: yes

Enquiry: Does the reported PBM E-score for `CCCTTGCG` fall at or above the 0.001 mark?
Return: no

Enquiry: Does the reported PBM E-score for `CTCAGGGA` fall at or above the 0.001 mark?
Return: no

Enquiry: Does the reported PBM E-score for `GGGCACTA` fall at or above the 0.001 mark?
Return: yes

Enquiry: Does the reported PBM E-score for `ATAGGAAG` fall at or above the 0.001 mark?
Return: no

Enquiry: Does the reported PBM E-score for `AGAGGAAC` fall at or above the 0.001 mark?
Return: yes

Enquiry: Does the reported PBM E-score for `TCTATAGA` fall at or above the 0.001 mark?
Return: no

Enquiry: Does the reported PBM E-score for `CTAATTAC` fall at or above the 0.001 mark?
Return: yes

Enquiry: Does the reported PBM E-score for `CCTGCAAC` fall at or above the 0.001 mark?
Return: yes

Enquiry: Does the reported PBM E-score for `GTCAGGCA` fall at or above the 0.001 mark?
Return: yes

Enquiry: Does the reported PBM E-score for `ATGGAGGA` fall at or above the 0.001 mark?
Return: yes

Enquiry: Does the reported PBM E-score for `CTGCAACA` fall at or above the 0.001 mark?
Return: yes

Enquiry: Does the reported PBM E-score for `ACCGCGAA` fall at or above the 0.001 mark?
Return: no

Enquiry: Does the reported PBM E-score for `GCGGTCAA` fall at or above the 0.001 mark?
Return: no

Enquiry: Does the reported PBM E-score for `GGAGGCAC` fall at or above the 0.001 mark?
Return: yes

Enquiry: Does the reported PBM E-score for `AGACGATC` fall at or above the 0.001 mark?
Return: no

Enquiry: Does the reported PBM E-score for `CTCAGGCC` fall at or above the 0.001 mark?
Return: no

Enquiry: Does the reported PBM E-score for `ATAGGAAC` fall at or above the 0.001 mark?
Return: yes

Enquiry: Does the reported PBM E-score for `GAGAAGTA` fall at or above the 0.001 mark?
Return: no

Enquiry: Does the reported PBM E-score for `CACAGCTC` fall at or above the 0.001 mark?
Return: yes

Enquiry: Does the reported PBM E-score for `ATCAGGTA` fall at or above the 0.001 mark?
Return: yes

Enquiry: Does the reported PBM E-score for `GTAATTAC` fall at or above the 0.001 mark?
Return: yes

Enquiry: Does the reported PBM E-score for `AACAGCCT` fall at or above the 0.001 mark?
Return: yes

Enquiry: Does the reported PBM E-score for `ATGTATTC` fall at or above the 0.001 mark?
Return: yes
